target: CCR1 (Homo sapiens, UniProt P32246); experiment: Membrane-based NanoBRET competition assay with 12 (2000 nM) and CCR1_Nluc membranes; assay type: binding; set-up: Promega pNLF1-C (Nluc) #CCR010TN00; host or cells: HEK293T, transient (PEI); conditions: 12 (2000 nM), CCR1_Nluc membranes; read-out: Ki, CCR1 (converted)
Sequence (P32246 whole entry): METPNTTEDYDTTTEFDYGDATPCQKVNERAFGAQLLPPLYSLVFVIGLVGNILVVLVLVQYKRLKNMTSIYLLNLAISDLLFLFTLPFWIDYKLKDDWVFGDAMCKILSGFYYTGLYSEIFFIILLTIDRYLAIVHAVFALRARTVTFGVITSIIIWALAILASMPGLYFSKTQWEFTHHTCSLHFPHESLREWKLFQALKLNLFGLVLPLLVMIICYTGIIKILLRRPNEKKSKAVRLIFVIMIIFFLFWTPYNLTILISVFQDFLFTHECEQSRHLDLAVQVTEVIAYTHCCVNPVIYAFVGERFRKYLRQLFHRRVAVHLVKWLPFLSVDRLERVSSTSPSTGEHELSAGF
READOUT LABEL: Ki (nM)

// worked examples, Ki included
Ask: Provide only the value of recorded Ki for O=C(C1=C(O)C(=O)N(CCc2ccc(F)cc2)C1c1ccc(F)cc1)c1ccccc1 (centres unmarked) [compound 26]
Result: 952

Ask: Provide only the value of recorded Ki for O=C(C1=C(O)C(=O)N(CCc2ccccc2)C1c1ccc(F)cc1)c1ccccc1 (centres unmarked) [compound 25]
Result: 997

Ask: Provide only the value of recorded Ki for O=C(O)c1ccc(Oc2ncc(Cl)cc2NS(=O)(=O)c2ccc(Cl)c(C(F)(F)F)c2)cc1 [compound 19, reference compound]
Result: 354

Ask: Provide only the value of recorded Ki for NC(=O)CSc1nnc(-c2ccc(Cl)cc2)n1C1CCCCC1 [compound 43]
Result: 357

Ask: Provide only the value of recorded Ki for O=C(C1=C(O)C(=O)N(CCc2ccc(O)cc2)C1c1ccccc1)c1ccccc1 (centres unmarked) [compound 35]
Result: 279

(a) CC(C)C[C@H](CO)Nc1nc(S[C@@H](C)c2ccccc2)nc2nc(N)sc12 [compound 18, reference compound]
(b) O=C(C1=C(O)C(=O)N(CCc2ccc(O)cc2)C1c1ccc(Br)cc1)c1ccccc1 (centres unmarked) [compound 31]
Ask: Could you point out whether the larger Ki belongs to a or to b ? Give the label of your selection.
Result: b
(b: 189 nM, a: 75.6 nM)
